target: FL-SMARCA4 (Homo sapiens, UniProt P51532); assay: SMARCA4 ATPase activity assay (ADP-Glo, chicken mononucleosome substrate); conditions: FL-SMARCA4 IC50, Table 3.2; ATPase assay, enzyme 5 nM, ATP 250 uM, chicken mononucleosome 10 nM, 30 min preincubation
Sequence (P51532 whole entry): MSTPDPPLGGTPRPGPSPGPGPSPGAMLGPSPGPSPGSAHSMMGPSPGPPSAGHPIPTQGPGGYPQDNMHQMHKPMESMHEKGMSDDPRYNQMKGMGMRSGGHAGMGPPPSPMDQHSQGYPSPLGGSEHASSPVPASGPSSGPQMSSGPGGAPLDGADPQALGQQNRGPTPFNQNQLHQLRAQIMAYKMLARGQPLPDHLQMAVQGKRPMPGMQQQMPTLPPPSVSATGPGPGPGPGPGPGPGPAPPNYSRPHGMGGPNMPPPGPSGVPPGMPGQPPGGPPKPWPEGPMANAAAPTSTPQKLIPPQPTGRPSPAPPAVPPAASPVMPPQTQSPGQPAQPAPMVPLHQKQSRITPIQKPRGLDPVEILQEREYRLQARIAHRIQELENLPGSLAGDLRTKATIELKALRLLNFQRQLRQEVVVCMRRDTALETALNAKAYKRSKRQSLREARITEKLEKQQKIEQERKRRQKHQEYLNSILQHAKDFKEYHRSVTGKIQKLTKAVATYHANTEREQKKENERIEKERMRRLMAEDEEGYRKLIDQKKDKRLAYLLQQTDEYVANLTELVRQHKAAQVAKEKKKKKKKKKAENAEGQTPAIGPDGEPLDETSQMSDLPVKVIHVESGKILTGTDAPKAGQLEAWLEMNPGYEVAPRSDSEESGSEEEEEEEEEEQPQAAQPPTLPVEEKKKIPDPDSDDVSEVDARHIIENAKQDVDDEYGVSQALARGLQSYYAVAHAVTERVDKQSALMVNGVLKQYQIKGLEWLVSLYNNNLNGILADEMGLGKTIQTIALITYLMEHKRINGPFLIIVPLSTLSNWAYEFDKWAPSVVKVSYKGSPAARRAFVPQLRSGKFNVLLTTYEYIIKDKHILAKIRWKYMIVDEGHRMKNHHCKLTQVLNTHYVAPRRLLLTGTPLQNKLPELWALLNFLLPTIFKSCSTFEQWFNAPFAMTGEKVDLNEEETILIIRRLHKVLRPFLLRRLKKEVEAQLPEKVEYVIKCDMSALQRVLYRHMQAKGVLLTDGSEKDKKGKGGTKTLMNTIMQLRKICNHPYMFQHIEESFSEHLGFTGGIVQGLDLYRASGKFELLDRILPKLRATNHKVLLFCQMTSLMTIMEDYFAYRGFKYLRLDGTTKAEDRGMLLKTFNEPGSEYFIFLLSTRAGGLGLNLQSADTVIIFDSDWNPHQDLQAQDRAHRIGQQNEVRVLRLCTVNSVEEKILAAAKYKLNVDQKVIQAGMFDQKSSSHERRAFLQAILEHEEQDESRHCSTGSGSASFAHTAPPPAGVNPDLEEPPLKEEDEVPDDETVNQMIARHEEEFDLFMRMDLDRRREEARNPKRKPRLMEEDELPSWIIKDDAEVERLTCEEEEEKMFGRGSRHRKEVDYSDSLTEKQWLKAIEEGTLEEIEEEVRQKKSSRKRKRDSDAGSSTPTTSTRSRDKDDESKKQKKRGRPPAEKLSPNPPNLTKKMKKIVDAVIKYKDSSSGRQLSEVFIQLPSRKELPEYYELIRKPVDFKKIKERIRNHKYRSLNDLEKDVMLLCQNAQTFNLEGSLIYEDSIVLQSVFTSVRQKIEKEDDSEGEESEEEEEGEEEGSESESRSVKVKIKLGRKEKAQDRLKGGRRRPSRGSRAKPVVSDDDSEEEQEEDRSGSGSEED
experimental_endpoint: IC50 (µM)

compound	IC50, µM
N#Cc1cc(C(=O)Nc2cc(C#N)c(=O)n(CCF)c2)sc1Cl [Compound 321]	0.635

[P] N#Cc1sc(C(=O)Nc2cc(Cl)c(=O)n(CCF)c2)cc1Cl [Compound 125]
[Q] O=C(Nc1ccc(=O)n(CC(F)(F)F)c1)c1cc(Cl)c(Cl)n1CCF [Compound 85]
[R] N#Cc1cc(C(=O)Nc2cc(Cl)c(=O)n(CC(F)(F)F)c2)sc1Cl [Compound 208]
Enquiry: Given 3 compounds, produce a descending ranking by IC50. Hello, could you send the labels back in the order asked? Thank you.
Return: Q, R, P
(Q: 34.7 µM, R: 0.632 µM, P: 0.108 µM)

###

target: FL-SMARCA4 (Homo sapiens, UniProt P51532); assay: SMARCA4 ATPase activity assay (ADP-Glo, chicken mononucleosome substrate); conditions: FL-SMARCA4 IC>50, Table 3c.2; ATPase assay, enzyme 5 nM, ATP 250 uM, chicken mononucleosome 10 nM, 30 min preincubation
experimental_endpoint: IC50 (µM)

See these solved cases before continuing.
compound	experimental_endpoint	endpoint_value
O=C1CCC(C#Cc2cc(C(=O)Nc3cc(F)c(=O)n(CC(F)F)c3)sc2Cl)CN1 (stereo not shown) [Compound 153c]	IC50	0.439
O=C(O)c1cccc(C#Cc2cc(C(=O)Nc3cc(F)c(=O)n(CC(F)F)c3)sc2Cl)c1 [Compound 131c]	IC50	0.0137
Cc1ncc(C#Cc2cc(C(=O)Nc3cc(F)c(=O)n(CC(F)F)c3)sc2Cl)o1 [Compound 62c]	IC50	0.0268
O=C(Nc1cc(F)c(=O)n(CC(F)F)c1)c1cc(C(F)(F)F)c(Cl)s1 [Compound 37c]	IC50	2.49
O=C(Nc1cc(F)c(=O)n(CC(F)F)c1)c1cc(C#Cc2cnccn2)c(Cl)s1 [Compound 40c]	IC50	0.259
NCCn1cc(NC(=O)c2cc(F)c(Cl)s2)cc(F)c1=O [Compound 32c]	IC50	12.5
Cn1ccc(-c2cc(NC(=O)c3cc(Cl)c(C(F)(F)F)s3)cn(CC(F)F)c2=O)n1 [Compound 103c]	IC50	26
O=C(Nc1cc(F)c(=O)n(CC(F)F)c1)c1cc(C#Cc2cocn2)c(Cl)s1 [Compound 136c]	IC50	0.117

[A] NCc1nc(C#Cc2cc(C(=O)Nc3cc(F)c(=O)n(CC(F)F)c3)sc2Cl)cs1 [Compound 125c]
[B] O=C(Nc1cc(F)c(=O)n(CC(F)F)c1)c1cc(N2CCN(c3ccncc3)CC2)c(Cl)s1 [Compound 119c]
Enquiry: Which value of IC50 is numerically greater: that of A or that of B ? Returns: label corresponding to the selected item.
Return: B

###

biological target: FL-SMARCA4 (Homo sapiens); assay: SMARCA4 ATPase activity assay (ADP-Glo, chicken mononucleosome substrate); conditions: FL-SMARCA4 IC50, Table 3.2; ATPase assay, enzyme 5 nM, ATP 250 uM, chicken mononucleosome 10 nM, 30 min preincubation
pIC50: −log10 of the molar value.
experimental_endpoint: pIC50

compound	endpoint_value
N#Cc1[nH]c(C(=O)Nc2ccc(=O)n(CC(F)F)c2)cc1Cl [Compound 294]	6.41
N#Cc1cc(C(=O)Nc2cc(Cl)c(=O)n(CCF)c2)sc1Cl [Compound 215]	6.31
O=C(Nc1cc(F)c(=O)n(CC(F)(F)F)c1)c1cnc(Cl)s1 [Compound 143]	6.48

Cited source for all entries: patent US20220356174A1
